test.target: T1, full-length human GPC3 (human, UniProt P51654 25-554)
T1 construct: On CHO (DXB11) or SK-HEP-1 (SK-03) transfectants; also used here for the GPC3 on the hepatoma lines HepG2 and HuH-7; also called human glypican 3
T1 sequence (P51654 25-554 limits assumed): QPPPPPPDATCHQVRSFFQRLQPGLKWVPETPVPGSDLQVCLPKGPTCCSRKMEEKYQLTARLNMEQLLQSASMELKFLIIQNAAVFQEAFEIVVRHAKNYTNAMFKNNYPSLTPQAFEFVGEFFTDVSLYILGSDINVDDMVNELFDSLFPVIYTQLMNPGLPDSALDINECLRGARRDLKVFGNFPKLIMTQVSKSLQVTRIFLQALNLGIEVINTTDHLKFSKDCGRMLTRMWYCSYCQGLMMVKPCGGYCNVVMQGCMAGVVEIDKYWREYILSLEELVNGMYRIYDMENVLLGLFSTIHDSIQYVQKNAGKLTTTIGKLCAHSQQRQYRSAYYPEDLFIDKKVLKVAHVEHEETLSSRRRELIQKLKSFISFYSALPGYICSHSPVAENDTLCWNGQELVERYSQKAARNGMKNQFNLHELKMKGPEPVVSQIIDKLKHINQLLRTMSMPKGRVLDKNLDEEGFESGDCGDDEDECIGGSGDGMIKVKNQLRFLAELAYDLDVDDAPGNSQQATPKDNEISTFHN
measurement.notes: flow cytometry, antibody at 5 µg/mL, HuH-7 cells
Listed here are binders together with their documented FACS X-mode value of the histogram.
Just the number.

binder	FACS X-mode value of the histogram
M1E7 (antibody, human IgG1, kappa, V domains shown, Mouse monoclonal from hybridoma; also called M1E07) VH: EVQLQQSGPELVKPGASVKISCKASGYSFTGYYMHWVKQSPEKSLEWIGEINPSTGGTTYNQKFKAKATLTVDKSSSTAYMQLKSLTSEDSAVYYCARRGGLTGTSFFAYWGQGTLVTVSA VL: DVVMTQTPLSLSVTIGQPASISCKSSQSLLYSNGKTYLNWLQQRPGQAPKHLMYQVSKLDPGIPDRFSGSGSETDFTLKISRVEAEDLGVYYCLQSTYYPLTFGAGTKLELKR	5

Now look at this one.
Endpoint output: FACS X-mode value of the histogram of M6B1 (antibody, V domains shown, Mouse monoclonal from hybridoma) VH: EVQLVESGGDLVKPGGSLKLSCAASGFTFSSYAMSWVRQTPEKRLEWVAAINSNGGTTYYPDTMKDRFTISRDNAKNTLYLQMSSLRSEDSALYYCTRHNGGYENYGWFAYWGQGTLVTVSA VL: DIQMTQSPSSLSASLGGKVTITCKASQDINKNIIWYQHKPGKGPRLLIWYTSTLQPGIPSRFSGSGSGRDYSFSISNLEPEDIATYYCLQYDNLPRTFGGGTKLEIK . Value? 3
